Biological target: T1, human melanocortin receptor subtype 1 (hMC1-R) (human, UniProt Q01726 1-317)
T1 construct: whole, on cells; membranes of CHO-K1 cells
T1 sequence (Q01726 whole entry): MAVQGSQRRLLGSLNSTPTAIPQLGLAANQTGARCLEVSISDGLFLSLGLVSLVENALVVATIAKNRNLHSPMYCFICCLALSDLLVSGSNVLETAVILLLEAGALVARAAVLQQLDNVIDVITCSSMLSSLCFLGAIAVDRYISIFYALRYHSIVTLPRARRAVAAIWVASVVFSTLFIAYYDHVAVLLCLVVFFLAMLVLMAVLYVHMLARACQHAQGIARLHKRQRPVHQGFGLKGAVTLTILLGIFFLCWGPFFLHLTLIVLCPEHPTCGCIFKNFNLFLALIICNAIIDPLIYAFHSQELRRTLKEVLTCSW
Assay: [125I]-NDP-α-MSH competition, membranes
Bridge positions count the residues as written; N and C are the ends. Square brackets hold non-standard residues; d marks the D form. Ends that are not written are not given here. 1Nal = N[C@@H](Cc1cccc2ccccc12)C(=O)O; d2Nal = N[C@H](Cc1ccc2ccccc2c1)C(=O)O; Pen = CC(C)(S)[C@H](N)C(=O)O; Nle = CCCC[C@H](N)C(=O)O; Ac5c = NC1(C(=O)O)CCCC1; βAla = NCCC(=O)O
Each entry below lists one item and its recorded pKi value.
pKi field: float, defined as -log10 of concentration (mol/L).

D[Ac5c][d2Nal]RWK-NH2 (lactam 1-6; also: hydantoin ring: N-terminal N of Asp1 and backbone N of residue 2 bridged by one C(O), bridge at N via C(O), other end not in the chain) [c[Hydantoin(C(O)-(Asp-A5c))-D-2-Nal-Arg-Trp-Lys]-NH2] : 5.00
CEHXRXACPPKDXYGRKKRRQRRR (N-terminal Ac; D-2-Nal at 4; 2-Nal at 6; β-Ala at 13; disulfide Cys1-Cys8; C-terminal NH2) : 8.76
Ac-CEH[d2Nal]R[1Nal]ACPPKD[βAla]RKRRRQRRR-NH2 (disulfide 1-8) [Ac-c(Cys-Glu-His-D-2-Nal-Arg-1-Nal-Ala-Cys)-Pro-Pro-Lys-Asp-β-[…]NH2] : 8.67

Now consider the entry below.
Give the measured pKi of [Nle]GC[dA]H[dF]RW[Pen]-NH2 (disulfide 3-9; also: N-terminal hydantoin: C(O) bridges X1 N-terminal N and G2 backbone N, bridge at N via C(O), other end not in the chain) [Hydantoin(C(O)-(Nle-Gly))-c(Cys-D-Ala-His-D-Phe-Arg-Trp-Pen)-NH2] .
7.89
